- measurement-target: UniProt:P06401
- Sequence (P06401 whole entry): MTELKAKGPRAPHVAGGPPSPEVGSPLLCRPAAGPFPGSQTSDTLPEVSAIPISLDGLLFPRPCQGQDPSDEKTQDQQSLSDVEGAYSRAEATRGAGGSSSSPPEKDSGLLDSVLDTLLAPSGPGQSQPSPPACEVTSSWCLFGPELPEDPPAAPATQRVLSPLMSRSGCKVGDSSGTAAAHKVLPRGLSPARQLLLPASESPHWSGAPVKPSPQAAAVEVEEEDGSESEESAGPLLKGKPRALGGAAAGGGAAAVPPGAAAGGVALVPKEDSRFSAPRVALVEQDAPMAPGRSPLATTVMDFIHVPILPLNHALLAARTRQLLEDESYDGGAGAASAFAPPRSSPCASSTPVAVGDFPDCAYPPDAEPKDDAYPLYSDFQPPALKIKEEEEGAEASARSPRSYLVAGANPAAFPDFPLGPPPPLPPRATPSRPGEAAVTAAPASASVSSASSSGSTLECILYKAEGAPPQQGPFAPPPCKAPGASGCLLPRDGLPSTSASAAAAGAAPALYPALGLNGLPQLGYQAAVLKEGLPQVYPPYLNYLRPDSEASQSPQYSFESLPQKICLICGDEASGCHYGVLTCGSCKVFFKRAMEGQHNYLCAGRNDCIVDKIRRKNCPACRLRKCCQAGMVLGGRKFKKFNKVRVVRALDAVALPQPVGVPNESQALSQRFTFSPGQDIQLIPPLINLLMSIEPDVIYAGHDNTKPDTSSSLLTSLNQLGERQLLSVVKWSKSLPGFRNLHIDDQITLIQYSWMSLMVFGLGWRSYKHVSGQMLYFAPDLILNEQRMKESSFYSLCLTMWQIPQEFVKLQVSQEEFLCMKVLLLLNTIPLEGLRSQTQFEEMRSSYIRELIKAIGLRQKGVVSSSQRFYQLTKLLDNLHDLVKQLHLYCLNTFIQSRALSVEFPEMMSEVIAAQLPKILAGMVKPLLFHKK
- Type: functional

compound	AC50
CCN(CC)C(=O)C1CN2CCc3cc(OC)c(OC)cc3C2CC1OC(C)=O (centres undefined) [BENZQUINAMIDE]	> 30 µM
COc1ccc(/C=C/C(=O)Nc2ccccc2C(=O)O)cc1OC	> 30 µM
COc1cc2c(Nc3ccc(Br)cc3F)ncnc2cc1OCC1CCN(C)CC1	> 30 µM
CN(c1nccc(=O)[nH]1)C1CCN(c2nc3ccccc3n2Cc2ccc(F)cc2)CC1	> 30 µM
C=C(C)[C@@H]1CCC(C)=C[C@H]1c1c(O)cc(CCCCC)cc1O	> 30 µM
CC(C)C[C@H](CN)CC(=O)O	> 30 µM
Cc1ccc2c(-c3ccccc3)nc(=O)n(C(C)C)c2c1	> 30 µM
C=C[C@@]1(C)CC(=O)[C@]2(O)[C@@]3(C)[C@@H](O)CCC(C)(C)[C@@H]3[C@H](OC(=O)CCN(C)C)[C@H](OC(C)=O)[C@@]2(C)O1	> 30 µM
CNCCC=C1c2ccccc2CCc2ccccc21	> 30 µM

###

- measurement-target: Neuronal acetylcholine receptor subunit alpha-4 (Homo sapiens, UniProt P43681); also: assay procedure not described here
- Sequence (P43681 whole entry): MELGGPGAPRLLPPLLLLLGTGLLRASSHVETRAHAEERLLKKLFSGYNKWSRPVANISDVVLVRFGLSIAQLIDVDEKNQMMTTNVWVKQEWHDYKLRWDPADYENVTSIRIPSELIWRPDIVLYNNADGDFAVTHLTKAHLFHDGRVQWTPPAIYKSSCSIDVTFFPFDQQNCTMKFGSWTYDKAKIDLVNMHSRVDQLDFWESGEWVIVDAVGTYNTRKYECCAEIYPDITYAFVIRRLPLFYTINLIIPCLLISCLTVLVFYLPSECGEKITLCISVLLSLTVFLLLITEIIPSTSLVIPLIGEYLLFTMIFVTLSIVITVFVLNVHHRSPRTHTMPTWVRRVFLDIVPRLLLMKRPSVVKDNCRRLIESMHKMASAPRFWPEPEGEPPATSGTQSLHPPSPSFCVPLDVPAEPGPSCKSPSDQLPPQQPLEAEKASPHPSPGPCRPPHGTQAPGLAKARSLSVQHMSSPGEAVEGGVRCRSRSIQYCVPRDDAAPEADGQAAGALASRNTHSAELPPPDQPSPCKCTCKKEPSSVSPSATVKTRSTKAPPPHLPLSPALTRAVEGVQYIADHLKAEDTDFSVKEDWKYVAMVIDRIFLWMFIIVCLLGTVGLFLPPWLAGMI
Some compounds, each annotated with its measured AC50.

compound	measurement-target	AC50
Cn1c(=O)c2[nH]cnc2n(C)c1=O	Neuronal acetylcholine receptor subunit alpha-4 (Homo sapiens, UniProt P43681)	> 10 µM
O=C(Nc1nc(-c2cc(Cl)cs2)c(N2CCN(C3CCCCC3)CC2)s1)c1cnc(N2CCC(C(=O)O)CC2)c(Cl)c1	Neuronal acetylcholine receptor subunit alpha-4 (Homo sapiens, UniProt P43681)	> 10 µM
CC(=O)c1ccc2c(c1)N(CCCN1CCC(CCO)CC1)c1ccccc1S2	Neuronal acetylcholine receptor subunit alpha-4 (Homo sapiens, UniProt P43681)	> 30 µM
COCCOC(=O)C1=C(C)NC(C)=C(C(=O)OC/C=C/c2ccccc2)C1c1cccc([N+](=O)[O-])c1 (centres undefined)	Neuronal acetylcholine receptor subunit alpha-4 (Homo sapiens, UniProt P43681)	> 30 µM
